Assay: Pararosaniline-based colorimetric assay for sulfur dioxide
Format: physicochemical
Details: detected with pararosaniline-based colorimetric assay; 10 equiv cysteine, pH 7.4

{"columns": ["compound", "SO2 source"],
 "data": [
  ["CNCc1ccccc1 [BnNHMe, N-methylbenzylamine, reference compound]", "no"],
  ["O=[N+]([O-])c1ccc(S(=O)(=O)Nc2cccc(F)c2)c([N+](=O)[O-])c1", "yes"],
  ["CCCN(Cc1ccccc1)S(=O)(=O)c1ccc([N+](=O)[O-])cc1[N+](=O)[O-]", "yes"],
  ["COC(=O)C1CCCN1S(=O)(=O)c1ccc([N+](=O)[O-])cc1[N+](=O)[O-] (centres unmarked)", "yes"],
  ["O=[N+]([O-])c1ccc(S(=O)(=O)N2CCOCC2)c([N+](=O)[O-])c1", "yes"],
  ["O=[N+]([O-])c1ccc(S(=O)(=O)Nc2ccccc2)c([N+](=O)[O-])c1 [Compound 6, N-phenyl, 2,4-dinitrophenylsulfonamide]", "yes"],
  ["COC(=O)C(C)NS(=O)(=O)c1ccc([N+](=O)[O-])cc1[N+](=O)[O-] (centres unmarked)", "yes"],
  ["NCc1ccccc1 [BnNH2, Benzylamine, reference compound]", "no"],
  ["O=[N+]([O-])c1ccc(S(=O)(=O)NCc2ccccc2)c([N+](=O)[O-])c1 [Compound 1, N-benzyl-2,4-dinitrophenylsulfonamide]", "yes"],
  ["COc1ccc(NS(=O)(=O)c2ccc([N+](=O)[O-])cc2[N+](=O)[O-])cc1", "yes"],
  ["NNC(=O)c1ccncc1 [Isoniazide, reference compound]", "no"],
  ["CN(Cc1ccccc1)S(=O)(=O)c1ccc([N+](=O)[O-])cc1[N+](=O)[O-]", "yes"],
  ["O=[N+]([O-])c1ccc(S(=O)(=O)N2CCCCC2)c([N+](=O)[O-])c1", "yes"],
  ["CN1CCN(S(=O)(=O)c2ccc([N+](=O)[O-])cc2[N+](=O)[O-])CC1", "yes"]
]}
